Assay Text: chemical genetic growth profiling, strain panel (AID 1159580);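 further: tested at 20 µM; growth read once vehicle control cultures reached saturation at 30 °C; 1 = growth at the plate median or of vehicle wells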
Setup Conditions: S. cerevisiae deletion strains, growth OD, locus YEL061C, strain CIN8 (second series), stronger effect = lower value
Among all 5,500 compounds or so, about 2,000 (36%) were called active. Another 18% or so got no clear call; they are omitted. The list shows a part of the results.
Property Name: normalized growth
Output: the number by itself.

For orientation, consider the following solved cases.
Query: Query (compound): CCC(C)(C)C(=O)O[C@H]1C[C@@H](C)C=C2C=C[C@H](C)[C@H](CC[C@@H]3C[C@@H](O)CC(=O)O3)[C@H]21 ; field requested: normalized growth
Result: 0.988

Query: What about this compound? C[N+]1(C)C2CC(OC(=O)[C@@H](CO)c3ccccc3)CC1C1OC12 (stereo not given in full)
Result: 0.98

Query: What about this compound? CC(C)[C@@H]1CC[C@@H](C)C[C@H]1O
Result: 0.963

Query: What about this compound? COC(=O)C[C@H]1C(C)(C)C(=O)[C@@H]2CC3=C(CC[C@]4(C)C3=CC(=O)O[C@H]4c3ccoc3)[C@@]1(C)C2=O
Result: 0.958

Consider the additional compound presented here.
Query: Query (compound): Cc1ccc(C)c(OCCCC(C)(C)C(=O)O)c1 ; field requested: normalized growth
Result: 0.98

###

Assay Text: chemical genetic growth profiling, strain panel (AID 1159580)
Setup Conditions: S. cerevisiae deletion strains, growth OD, locus YDL214C, strain PRR2, stronger effect = lower value
Screen size: about 5,500 compounds; about 2,000 (36%) were called active. Inconclusive results (about 18%) are left out. The list shows a part of the results.
Lab note: compare normalized growth with 0.9, writing label 1 if less and label 0 if equal or more.

Query: I'd appreciate it if you could check whether CC(C)(CCC(C)(C)N1C(=O)c2cccc3cccc(c23)C1=O)N1C(=O)c2cccc3cccc(c23)C1=O has normalized growth smaller than 0.9.
Result: label 1

Query: What about this molecule? Cc1onc(-c2c(Cl)cccc2Cl)c1C(=O)NNc1c(Cl)cccc1Cl
Result: label 0

Query: What about this molecule? S=c1[nH]nc(Nc2ccc(I)cc2)s1
Result: label 1

Next up:
Query: I'd appreciate it if you could check whether CC(C)(C)c1ccc(C(=O)Nc2ccc(C(F)(F)F)cc2)s1 has normalized growth smaller than 0.9.
Result: label 0

###

Assay Text: chemical genetic growth profiling, strain panel (AID 1159580)
Setup Conditions: S. cerevisiae deletion strains, growth OD, locus YDR392W, strain spt3
Hit rate of the full screen: of about 5,500 compounds, about 2,000 (36%) were called active. About 18% were inconclusive and are not listed. No stated cut-off is given here; in the data, active means normalized growth mostly below about 0.91 (no sharp cut-off); inconclusive means no clear call, values can overlap the other calls; inactive means mostly above about 0.92. This is one part of the list.
The reply should be one of these categories: true for active, false for inactive

Query: Name the outcome recorded for CC(C)C(C)/C=C/C(C)[C@H]1CCC2C3=CCC4CC(=O)CC[C@]4(C)C3CC[C@@]21C (stereo partly drawn) in the assay.
Result: false

Others:
Query: Name the outcome recorded for O=c1[nH]oc2c1CCNC2 in the assay.
Result: false

Query: What about this compound? CC(C)C(C)/C=C/C(C)C1CCC2C3=CC=C4CC(O)CCC4(C)C3CCC21C (stereo not drawn)
Result: true

Query: What about this compound? CC(C)C(=O)Nc1ccc([N+](=O)[O-])c(C(F)(F)F)c1
Result: false

Query: What about this compound? CCN(CC)CCOC(=O)c1ccc(N)cc1
Result: false

Query: What about this compound? OCCOCCN1CCN(C2=Nc3ccccc3Sc3ccccc32)CC1
Result: false

Query: What about this compound? CCCCOC(=O)c1ccccc1C(=O)OCCCC
Result: false

Query: What about this compound? Cc1cc(NC(=O)C2=C(O)c3ccccc3S(=O)(=O)N2C)no1
Result: false

Query: What about this compound? CC(=O)Oc1c(C)cccc1C(=O)O
Result: false

Query: What about this compound? CCCCCCCCCCCCCCCC(=O)OC1C(SC)OC(C(NC(=O)C2CC(CCC)CN2C)C(C)Cl)C(O)C1O (stereo not drawn)
Result: false

Query: What about this compound? Cc1cccc(Nc2ccccc2C(=O)O)c1C
Result: true

Query: What about this compound? C[C@H]1COC2=C1C(=O)C(=O)c1c2ccc2c1CCCC2(C)C
Result: true

Query: What about this compound? CC(=O)OC1CCC2(C)C(=CC=C3C2CCC2(C)C3CCC2C(C)/C=C/C(C)C(C)C)C1(C)C (stereo not drawn)
Result: false

Query: What about this compound? Clc1cccc(Cl)c1NC1=NCCN1
Result: false

Query: What about this compound? C=C1C(=O)O[C@@H]2C[C@@]3(C)CCC[C@H](C)C3=C[C@H]12
Result: true

Query: What about this compound? Cc1c(Cl)cccc1Nc1ccccc1C(=O)O
Result: true

Query: What about this compound? CO[C@@]1(NC(=O)CSCC#N)C(=O)N2C(C(=O)O)=C(CSc3nnnn3C)CSC21 (stereo partly drawn)
Result: false

Query: What about this compound? COc1ccc(CCN2CCC(Nc3nc4ccccc4n3Cc3ccc(F)cc3)CC2)cc1
Result: false

Query: What about this compound? Cc1cccc(C)c1NC1=NCCCS1
Result: false

Query: What about this compound? CCCCCCOc1ccccc1C(N)=O
Result: true

Query: What about this compound? C[C@@H]1C(=O)OC2[C@H](O)C34[C@@H]5OC(=O)[C@@]3(O[C@@H]3OC(=O)[C@H](O)[C@@]34[C@H](C(C)(C)C)[C@H]5O)[C@]21O (stereo partly drawn)
Result: false

Query: What about this compound? CC(C)NCC(O)c1cc(O)cc(O)c1 (stereo not drawn)
Result: false

Query: What about this compound? CCOC(=O)[C@H](CCc1ccccc1)N[C@@H](C)C(=O)N1[C@H](C(=O)O)C[C@@H]2CCC[C@@H]21
Result: false

###

Assay Text: chemical genetic growth profiling, strain panel (AID 1159580);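 further: tested at 20 µM; growth read once vehicle control cultures reached saturation at 30 °C; 1 = growth at the plate median or of vehicle wells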
Setup Conditions: S. cerevisiae deletion strains, growth OD, locus YFR003C, strain YPI1, stronger effect = lower value
Out of some 5,500 compounds screened, about 2,000 (36%) were called active. Not shown: some 18% with an inconclusive outcome. This is one part of the list.
Lab note: compare normalized growth with 1, writing T if less and F if equal or more.

Observe how each entry below is paired with its result.
Query: I'd appreciate it if you could check whether CC1(C)OC(=O)C(=Cc2cccn2-c2ccc(C(F)(F)F)cc2)C(=O)O1 has normalized growth smaller than 1.
Result: F

Query: What about this compound? CC(=O)ON=C1c2cc([N+](=O)[O-])ccc2-c2ccc([N+](=O)[O-])cc21
Result: T

Query: What about this compound? Cc1nc(-c2ccc(S(=O)(=O)Nc3ccc(Br)cc3Cl)s2)cs1
Result: T

Others:
Query: I'd appreciate it if you could check whether O=c1c2ccccc2[nH]c(=S)n1-c1cccc(C(F)(F)F)c1 has normalized growth smaller than 1.
Result: T

Query: What about this compound? CC(C)(CCC(C)(C)N1C(=O)c2cccc3cccc(c23)C1=O)N1C(=O)c2cccc3cccc(c23)C1=O
Result: T

###

Assay Text: chemical genetic growth profiling, strain panel (AID 1159580);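 further: tested at 20 µM; growth read once vehicle control cultures reached saturation at 30 °C; 1 = growth at the plate median or of vehicle wells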
Setup Conditions: S. cerevisiae deletion strains, growth OD, locus YMR223W, strain ubp8, stronger effect = lower value
The whole screen tested about 5,500 compounds, of which about 2,000 (36%) were called active. About 18% were inconclusive and are not listed. The list shows a part of the results.
Lab note: compare normalized growth with 1, writing true if less and false if equal or more.

Observe how each entry below is paired with its result.
Query: I'd appreciate it if you could check whether Nc1ccc(N=Nc2ccccc2)c(N)n1 has normalized growth smaller than 1.
Result: true

Query: What about this compound? C=C1CCC2C(CC2(C)C)C(=O)CCC1O (stereo unspecified)
Result: false

Query: What about this compound? CC1(C)O[C@H]2[C@H](O)C[C@](O)(C(N)=O)C[C@H]2O1
Result: false

Others:
Query: I'd appreciate it if you could check whether C[C@@H]1C(=O)OC2[C@H](O)C34[C@@H]5OC(=O)[C@@]3(O[C@@H]3OC(=O)[C@H](O)[C@@]34[C@H](C(C)(C)C)[C@H]5O)[C@]21O (stereo partly specified) has normalized growth smaller than 1.
Result: false

###

Assay Text: chemical genetic growth profiling, strain panel (AID 1159580);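 further: tested at 20 µM; growth read once vehicle control cultures reached saturation at 30 °C; 1 = growth at the plate median or of vehicle wells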
Setup Conditions: S. cerevisiae deletion strains, growth OD, locus YMR263W, strain SAP30, stronger effect = lower value
Out of some 5,500 compounds screened, about 2,000 (36%) were called active. Another 18% or so got no clear call; they are omitted. The list shows a part of the results.
Property Name: normalized growth
Output: the number by itself.

For orientation, consider the following solved cases.
Query: Query (molecule): CCCN1CCC[C@@H](c2cccc(O)c2)C1 ; field requested: normalized growth
Result: 1

Query: What about this molecule? CCN(CC)C(=O)c1cccc(C)c1
Result: 0.999

Query: What about this molecule? N#CC(C#N)=Cc1ccc(-c2cc(C(F)(F)F)ccc2Cl)o1
Result: 0.97

Query: What about this molecule? CC1(C)OC(=O)C=CC2(C)C1CC(O)C1(C)C2CCC2(C)C(c3ccoc3)OC(=O)C3OC321 (stereo unspecified)
Result: 1.01

Query: What about this molecule? O=C(C1CCCCC1)N1CC(=O)N2CCc3ccccc3C2C1 (stereo unspecified)
Result: 1

Others:
Query: Query (molecule): Cn1c(=O)c2[nH]cnc2n(C)c1=O ; field requested: normalized growth
Result: 0.996

Query: What about this molecule? C=C1C(=O)O[C@@H]2C3O[C@]3(C)CC/C=C(\C)CC[C@@H]12 (stereo partly specified)
Result: 0.9

Query: What about this molecule? C[C@@H]1C(=O)OC2[C@H](O)C34[C@@H]5OC(=O)[C@@]3(O[C@@H]3OC(=O)[C@H](O)[C@@]34[C@H](C(C)(C)C)[C@H]5O)[C@]21O (stereo partly specified)
Result: 1

Query: What about this molecule? CC(C)n1cc(C#N)c(=O)n(Cc2ccccc2)c1=O
Result: 0.967

Query: What about this molecule? COc1ccc(C(C)=O)cc1CSC(=NS(=O)(=O)c1ccccc1)Nc1cccc(F)c1
Result: 0.998

Query: What about this molecule? C=C1C(=O)OC2CC1C(OC(C)=O)C/C(C)=C/CC/C(C)=C/CC[C@]2(C)O (stereo partly specified)
Result: 1.01

Query: What about this molecule? CCNC(=O)CC[C@H](N)C(=O)O
Result: 0.989

Query: What about this molecule? CCOC(=O)Cn1c(=O)c(C#N)cn(C(C)C)c1=O
Result: 1

Query: What about this molecule? N#Cc1ncc(C(F)(F)F)cc1Oc1ccc(Cl)cc1
Result: 0.913

Query: What about this molecule? Nc1ccn(C2O[C@H](CO)[C@@H](O)[C@@H]2O)c(=O)n1 (stereo partly specified)
Result: 1

Measured values drawn from PubChem BioAssay AID1159580 for this set.
